- systemName: Tyrosine-protein kinase JAK2 (Homo sapiens) (UniProt O60674)
- Sequence (O60674 whole entry): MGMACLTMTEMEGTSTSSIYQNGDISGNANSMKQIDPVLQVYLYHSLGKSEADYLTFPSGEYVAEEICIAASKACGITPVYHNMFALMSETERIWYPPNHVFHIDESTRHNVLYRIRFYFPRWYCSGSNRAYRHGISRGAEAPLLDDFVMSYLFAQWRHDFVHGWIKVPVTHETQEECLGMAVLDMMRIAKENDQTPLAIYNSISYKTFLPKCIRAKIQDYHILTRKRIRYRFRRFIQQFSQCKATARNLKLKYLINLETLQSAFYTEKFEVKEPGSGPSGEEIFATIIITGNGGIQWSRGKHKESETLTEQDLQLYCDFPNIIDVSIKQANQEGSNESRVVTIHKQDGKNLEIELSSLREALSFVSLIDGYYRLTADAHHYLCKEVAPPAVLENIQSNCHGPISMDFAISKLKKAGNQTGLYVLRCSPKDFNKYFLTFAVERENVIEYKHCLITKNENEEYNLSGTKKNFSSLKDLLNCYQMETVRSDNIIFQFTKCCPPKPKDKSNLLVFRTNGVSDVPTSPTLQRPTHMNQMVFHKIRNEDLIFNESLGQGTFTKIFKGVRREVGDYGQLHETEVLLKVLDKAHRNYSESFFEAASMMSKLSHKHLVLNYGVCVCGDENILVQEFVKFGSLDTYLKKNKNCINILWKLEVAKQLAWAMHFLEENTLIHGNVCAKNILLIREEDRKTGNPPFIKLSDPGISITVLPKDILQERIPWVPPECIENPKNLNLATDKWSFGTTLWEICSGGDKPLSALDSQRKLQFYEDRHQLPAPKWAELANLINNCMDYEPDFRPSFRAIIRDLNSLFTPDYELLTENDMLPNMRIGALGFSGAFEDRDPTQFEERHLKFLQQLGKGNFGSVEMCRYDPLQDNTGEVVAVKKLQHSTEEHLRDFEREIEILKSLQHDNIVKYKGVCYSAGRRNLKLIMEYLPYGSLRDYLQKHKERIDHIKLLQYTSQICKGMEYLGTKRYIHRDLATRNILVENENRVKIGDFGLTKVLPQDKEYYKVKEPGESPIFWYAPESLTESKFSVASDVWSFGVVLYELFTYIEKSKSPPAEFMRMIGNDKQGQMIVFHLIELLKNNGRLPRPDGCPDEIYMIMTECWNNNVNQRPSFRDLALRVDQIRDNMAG
- recordedConditions: at 10 µM
observedProperty: residual activity (%)
Numbers only here, please. The scale is %.

INSERT INTO measurements (querysmiles, reported) VALUES
  ('N/C(=N\[N+](=O)[O-])N/N=C\c1ccc(-c2cccc([N+](=O)[O-])c2)o1', 85);

So for CC(C)[C@H](CO)Nc1nc(Nc2cccc(Cl)c2)c2ncn(C(C)C)c2n1 , the logged residual activity turned out to be 73

molecule CC(C)(C)c1cc(C=C(C#N)C#N)cc(Br)c1O , residual activity observed: 113

Record O=C1NC(=O)c2c1c1c3ccccc3n3c1c1c2c2ccccc2n1C1CCC3O1 , field residual activity: 82
